assay-details: Solubility of delivery agent compound
Format: physicochemical
stated-conditions: 350 µl 2N NaOH + 650 µl water, aqueous buffer, thermodynamic from solid; 200 mg+350 μl 2N NaOH+650 μl H2O, pH=7.67
Description: The reaction mixture was warmed to 25° C. and stirred for 64 hours. The volatiles were removed in vacuo. The residue was stirred in 2N aqueous sodium hydroxide for one hour and acidified with 2M aqueous sulfuric acid. […] Anal. Calculated: C=67.36, H=5.3, N=4.91. […] A solution of 53.05 g (0.186 mol) of 2-(4-(N-salicyloyl)aminophenyl) propionic acid and 300 mL of ethanol was treated with 7.59 g (0.190 mol) of NaOH dissolved in 22 mL of water. […] Anal. Calculated: C=60.45, H=5.45, N=3.92, Na=6.43. […]
measured-property: solubility (mg/mL)

1) CC(C(=O)O)c1ccc(NC(=O)c2ccccc2O)cc1 (stereo not shown): 200
